Test: recombinant barcode read abundance after kanamycin selection (control-corrected) (log10(CPM+1)); higher = more efficient recombination; sequences stand for … in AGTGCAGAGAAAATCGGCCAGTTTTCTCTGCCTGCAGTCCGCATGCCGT…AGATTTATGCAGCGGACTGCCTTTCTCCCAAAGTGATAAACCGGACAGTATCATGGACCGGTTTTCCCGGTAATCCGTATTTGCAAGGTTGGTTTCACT; site = the 11-nt target
Decision: recombinant barcode read abundance (log10) >= 0.2 yields met, all other cases yield not met.

Look over these answered cases.
{"SEQUENCE TEXT": "ATAGCAACTTGGGTTCTAACCTGTTGCCT (site ATAGCTACTAG)", "CLASS NAME": "not met"}
{"SEQUENCE TEXT": "ACATCTCCTTGGGTTCTAACCTGTTGCCT (site CCATCTCCTAG)", "CLASS NAME": "met"}
{"SEQUENCE TEXT": "AGTAACCCTTGGGTTCTAACCTGTTGCCT (site AATAACCCTAG)", "CLASS NAME": "not met"}
{"SEQUENCE TEXT": "TCTCGTTCTTGGGTTCTAACCTGTTGCTA (site AGAGTAACTGT)", "CLASS NAME": "not met"}
{"SEQUENCE TEXT": "CATCCTACTTGGGTTCTAACCTGTTGCGG (site CATCCTCCTCA)", "CLASS NAME": "not met"}
{"SEQUENCE TEXT": "CCGCGCCCTTGGGTTCTAACCTGTTGCAT (site ACGCGCCCTGT)", "CLASS NAME": "not met"}
{"SEQUENCE TEXT": "CAGGTGACTTGGGTTCTAACCTGTTGCGG (site GGATATCCTAA)", "CLASS NAME": "not met"}
{"SEQUENCE TEXT": "GTGAGGTCTTGGGTTCTAACCTGTTGCAT (site GTGAGGTCTAC)", "CLASS NAME": "met"}
{"SEQUENCE TEXT": "GGGGCGCCTTGGGTTCTAACCTGTTGCCT (site GGGGCGGCTAG)", "CLASS NAME": "not met"}
{"SEQUENCE TEXT": "CTCGGAACTTGGGTTCTAACCTGTTGCAT (site CTCGGAACTAT)", "CLASS NAME": "met"}

Does the sequence TACTTACCTTGGGTTCTAACCTGTTGCCT (site TACTTACCTAG) have recorded recombinant barcode read abundance (log10) that is 0.2 or more? met

Is recombinant barcode read abundance (log10) for ACAAACCCTTGGGTTCTAACCTGTTGCCT (site ACAAACCCTAG) at or above 0.2? met

Does TAGGCTGCTTGGGTTCTAACCTGTTGCCT (site TAGACTGCTAG) have a reported recombinant barcode read abundance (log10) of at least 0.2? met

Check this sequence for recombinant barcode read abundance (log10) at or above 0.2: GTAGCCACTTGGGTTCTAACCTGTTGCCT (site GTGGCCACTAG) met

Say whether CCGGATTCTTGGGTTCTAACCTGTTGCCT (site CCGGATTCTAG) shows recombinant barcode read abundance (log10) of 0.2 or more. met

###

Experiment: recombinant UMI read abundance after kanamycin selection (control-corrected) (log10(CPM+1)); higher = more efficient recombination; extreme values may be limits of the assay; sequences stand for … in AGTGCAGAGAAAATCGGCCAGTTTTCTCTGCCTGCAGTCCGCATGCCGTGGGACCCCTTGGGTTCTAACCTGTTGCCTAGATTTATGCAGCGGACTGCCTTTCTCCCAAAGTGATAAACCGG…AGGTTGGTTTCACT; site = the 11-nt donor
Consider the following sequences; for each one, report its recombinant UMI read abundance (log10).
Numbers only.

{"SEQUENCE TEXT": "TATTATGCATGGACCGGTTTTCCCGGTAATCCGTATTTGGA (site CATTATGCTTC)", "RECORDED METRIC": "recombinant UMI read abundance (log10)", "DATA VALUE": 0.525}
{"SEQUENCE TEXT": "CATCTCTCATGGACCGGTTTTCCCGGTAATCCGTATTTGTA (site CCTCTCTCTTA)", "RECORDED METRIC": "recombinant UMI read abundance (log10)", "DATA VALUE": 1.42}
{"SEQUENCE TEXT": "TCCTACTCATGGACCGGTTTTCCCGGTAATCCGTATTTGCA (site TCTTACTCTTG)", "RECORDED METRIC": "recombinant UMI read abundance (log10)", "DATA VALUE": 0}
{"SEQUENCE TEXT": "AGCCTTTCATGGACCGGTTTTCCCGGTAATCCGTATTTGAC (site AGCCCTTCTGT)", "RECORDED METRIC": "recombinant UMI read abundance (log10)", "DATA VALUE": 0}
{"SEQUENCE TEXT": "GATTGGACATGGACCGGTTTTCCCGGTAATCCGTATTTGAA (site GATTGGACTCT)", "RECORDED METRIC": "recombinant UMI read abundance (log10)", "DATA VALUE": 0.0133}
{"SEQUENCE TEXT": "GTACATTCATGGACCGGTTTTCCCGGTAATCCGTATTTGTG (site GTACATTCTCA)", "RECORDED METRIC": "recombinant UMI read abundance (log10)", "DATA VALUE": 2.5}
{"SEQUENCE TEXT": "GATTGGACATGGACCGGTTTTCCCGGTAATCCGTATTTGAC (site AATTGGACTGT)", "RECORDED METRIC": "recombinant UMI read abundance (log10)", "DATA VALUE": 0.543}
{"SEQUENCE TEXT": "GTGCATGCATGGACCGGTTTTCCCGGTAATCCGTATTTGGG (site GTGCATGCTGC)", "RECORDED METRIC": "recombinant UMI read abundance (log10)", "DATA VALUE": 0}

Return reported recombinant UMI read abundance (log10) values for all items listed beneath this line.
1. GAAAATGCATGGACCGGTTTTCCCGGTAATCCGTATTTGAG (site GAAAATGCTCT)
2. CACTACTCATGGACCGGTTTTCCCGGTAATCCGTATTTGCC (site CACTCCTCTGG)
3. AGTGACTCATGGACCGGTTTTCCCGGTAATCCGTATTTGCG (site AGTGACTCTCG)
4. CGAGATCCATGGACCGGTTTTCCCGGTAATCCGTATTTGTT (site CGGAATCCTAA)
5. TCCACCCCATGGACCGGTTTTCCCGGTAATCCGTATTTGCG (site TCCACCGCTCG)
6. CTGGTCGCATGGACCGGTTTTCCCGGTAATCCGTATTTGCA (site CTGGTCGCTTG)
7. AGCCTAACATGGACCGGTTTTCCCGGTAATCCGTATTTGTT (site AGCCTACCTAA)
8. GGGAATCCATGGACCGGTTTTCCCGGTAATCCGTATTTGAA (site GGTAATCCTTT)

1. 2.25
2. 0.801
3. 2.88
4. 0
5. 0.0184
6. 2.01
7. 0.024
8. 0.0108
